Values were extracted from ChEMBL document CHEMBL3792352.

- PROTOCOL SUMMARY: AUClast in Sprague-Dawley rat at 0.2 mg/kg, ig through feeding tube by LC/MS/MS analysis
- Format: ADME, organism-based
- Parameters: dose 0.2 mg/kg, route intragastric, time 0 - last
- RUN CONDITIONS: in vivo, po

{"columns": ["STRUCTURE", "AUC(0-t) / ng·h/mL"],
 "data": [
  ["COc1ccc(C[C@H](NC(=O)c2cc(Cl)ccc2Cl)C(=O)N[C@@H](CC(C)C)B(O)O)c(OC)c1", 407]
]}

###

- SYSTEM NAME: Proteasome Macropain subunit MB1 (Homo sapiens)
- Sequence (P28074 whole entry): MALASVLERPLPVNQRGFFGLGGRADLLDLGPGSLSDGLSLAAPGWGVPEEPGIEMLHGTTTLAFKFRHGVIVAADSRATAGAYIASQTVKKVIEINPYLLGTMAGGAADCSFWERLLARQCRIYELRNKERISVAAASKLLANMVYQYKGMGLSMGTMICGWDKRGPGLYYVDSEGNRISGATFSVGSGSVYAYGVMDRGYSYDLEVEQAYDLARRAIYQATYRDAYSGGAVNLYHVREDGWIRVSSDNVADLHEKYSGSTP
- PROTOCOL SUMMARY: Inhibition of chymotrypsin like activity of human 20S proteasome using Suc-Leu-Leu-Val-Tyr-AMC as substrate preincubated for 10 mins followed by substrate addition measured after 1 hr by spectrofluorimetric analysis
- RUN CONDITIONS: read-out: IC50
pIC50: −log10 of the molar value.
MEASUREMENT KIND: pIC50

{"columns": ["COMPOUND", "TEST RESULT"],
 "data": [
  ["Cc1cnc(C(=O)N[C@@H](Cc2ccccc2)C(=O)N[C@@H](CC(C)C)B(O)O)cn1", 7.58],
  ["Cc1ccc(C[C@H](NC(=O)[C@H](Cc2ccccc2)NC(=O)c2cnccn2)B2OC3C[C@@H]4C[C@@H](C4(C)C)[C@]3(C)O2)cc1 (some centres undefined)", 8.31],
  ["CC1(C)[C@@H]2CC3OB([C@H](Cc4ccc(F)cc4)NC(=O)[C@H](Cc4ccccc4)NC(=O)[C@H]4CCCc5ccccc54)O[C@@]3(C)[C@H]1C2 (some centres undefined)", 8.90],
  ["CCCC[C@H](NC(=O)[C@H](Cc1ccccc1)NC(=O)[C@H]1CCCc2ccccc21)B1OC2C[C@@H]3C[C@@H](C3(C)C)[C@]2(C)O1 (some centres undefined)", 8.72]
]}
